# Tested on: Rutgers A strain house flies
# test_protocol: topical application, percent kill after 24 hours, resistant Rutgers A strain
# Type: in vivo, female)
# condition_details: Mobam 0.60 + synergist 3.0 μg/fly
reported_property: percent kill after 24 hours, with Mobam (%)
Provide only the numeric value, understood in %.

Output measured percent kill after 24 hours, with Mobam for this item: C#CCOCc1ccc(Cl)c(Cl)c1
67

Output measured percent kill after 24 hours, with Mobam for this item: C#CCON=C(C)c1ccc(Cl)cc1
100

Output measured percent kill after 24 hours, with Mobam for this item: C#CCOCc1c(Cl)ccc(Cl)c1Cl
99

Output measured percent kill after 24 hours, with Mobam for this item: C#CCOCc1ccc(Cl)c(Cl)c1Cl
92
